test system: MCF-7/DOX cells; experiment: MTT anti-proliferative assay, MCF-7/DOX; type: cell-based, human; conditions: Homo sapiens, MCF7-DOX; MTT, 48 h; read-out: MCF-7/DOX IC50 ± SD
pIC50: −log10 of the molar value.
Rule: met for pIC50 not less than 6, not met for anything less.

Consider the following illustrative entries.
{"columns": ["molecular.string", "class.name"],
 "data": [
  ["COc1cc(/C=C/C(=O)N2CCN(C(=O)C3=Cc4ccc(Br)cc4S3(=O)=O)CC2)cc(OC)c1OC", "not met"],
  ["COc1cc(/C=C/C(=O)N2CCN(C(=O)C3=Cc4ccc(Br)cc4S3(=O)=O)CC2)cc(OC)c1O", "not met"],
  ["COc1ccc(/C=C/C(=O)N2CCN(C(=O)C3=Cc4cc(Br)ccc4S3(=O)=O)CC2)cc1", "met"]
]}

Task: # bool: pIC50 of "O=C(/C=C/c1ccccn1)N1CCN(C(=O)C2=Cc3cc(Br)ccc3S2(=O)=O)CC1" >= 6
Output: not met

Task: # bool: pIC50 of "COc1cc(/C=C/C(=O)CC(=O)/C=C/c2ccc(O)c(OC)c2)ccc1O" >= 6
Output: not met

====

measurement.kind: melting point

Solved cases (2 shown):
{"columns": ["molecular.string", "melting point"],
 "data": [
  ["COc1ccc(/C=C/C(=O)N2CCN(C(=O)C3=Cc4ccc(Br)cc4S3(=O)=O)CC2)cc1OC", "222 to 224 °C"],
  ["COc1ccc(/C=C/C(=O)N2CCN(C(=O)C3=Cc4ccc(Br)cc4S3(=O)=O)CC2)cc1", "220 to 222 °C"]
]}

Continue with the next compound.
Task: Please supply the value of reported melting point for the item "COc1cc(/C=C/C(=O)N2CCN(C(=O)C3=Cc4cc(Br)ccc4S3(=O)=O)CC2)cc(OC)c1OC"
Output: 94 to 96 °C

====

Parameter: melting point. Scope: all listed entries.

Solved cases (5 shown):
{"columns": ["molecule", "measurement.kind", "measured"],
 "data": [
  ["COc1cc(/C=C/C(=O)N2CCN(C(=O)C3=Cc4ccc(Br)cc4S3(=O)=O)CC2)cc(OC)c1OC [Compound 6n]", "melting point", "81 to 85 °C"],
  ["O=C(/C=C/c1ccccn1)N1CCN(C(=O)C2=Cc3cc(Br)ccc3S2(=O)=O)CC1 [Compound 6f]", "melting point", "241 to 242 °C"],
  ["O=C(/C=C/c1ccccc1O)N1CCN(C(=O)C2=Cc3ccc(Br)cc3S2(=O)=O)CC1 [Compound 6p]", "melting point", "> 250 °C"],
  ["COc1ccc(/C=C/C(=O)N2CCN(C(=O)C3=Cc4cc(Br)ccc4S3(=O)=O)CC2)cc1 [Compound 6b]", "melting point", "250 to 251 °C"],
  ["COc1cc(/C=C/C(=O)N2CCN(C(=O)C3=Cc4ccc(Br)cc4S3(=O)=O)CC2)cc(OC)c1O [Compound 6o]", "melting point", "112 to 114 °C"]
]}

Task: Please supply the value of reported melting point for the item COc1ccc(/C=C/C(=O)N2CCN(C(=O)C3=Cc4cc(Br)ccc4S3(=O)=O)CC2)cc1OC [Compound 6a]
Output: 244 to 246 °C

Task: Please supply the value of reported melting point for the item O=C(/C=C/c1ccc(Cl)cc1)N1CCN(C(=O)C2=Cc3cc(Br)ccc3S2(=O)=O)CC1 [Compound 6h]
Output: 225 to 227 °C

Task: Please supply the value of reported melting point for the item O=C(/C=C/c1ccc([N+](=O)[O-])cc1)N1CCN(C(=O)C2=Cc3cc(Br)ccc3S2(=O)=O)CC1 [Compound 6e]
Output: > 250 °C

Task: Please supply the value of reported melting point for the item O=C(/C=C/c1ccc(Br)cc1)N1CCN(C(=O)C2=Cc3cc(Br)ccc3S2(=O)=O)CC1 [Compound 6g]
Output: > 250 °C

Task: Please supply the value of reported melting point for the item O=C(/C=C/c1ccc(Br)cc1)N1CCN(C(=O)C2=Cc3ccc(Br)cc3S2(=O)=O)CC1 [Compound 6r]
Output: 215 to 217 °C

Task: Please supply the value of reported melting point for the item O=C(/C=C/c1ccc(Cl)cc1)N1CCN(C(=O)C2=Cc3ccc(Br)cc3S2(=O)=O)CC1 [Compound 6s]
Output: 225 to 227 °C

Task: Please supply the value of reported melting point for the item O=C(/C=C/c1ccc(C(F)(F)F)cc1)N1CCN(C(=O)C2=Cc3cc(Br)ccc3S2(=O)=O)CC1 [Compound 6i]
Output: 245 to 247 °C

Task: Please supply the value of reported melting point for the item O=C(/C=C/c1ccc(F)cc1)N1CCN(C(=O)C2=Cc3cc(Br)ccc3S2(=O)=O)CC1 [Compound 6k]
Output: > 250 °C

Task: Please supply the value of reported melting point for the item O=C(/C=C/c1ccccn1)N1CCN(C(=O)C2=Cc3ccc(Br)cc3S2(=O)=O)CC1 [Compound 6q]
Output: 97 to 99 °C

Task: Please supply the value of reported melting point for the item COc1cc(/C=C/C(=O)N2CCN(C(=O)C3=Cc4cc(Br)ccc4S3(=O)=O)CC2)cc(OC)c1O [Compound 6d]
Output: 125 to 127 °C
